# Tested on: HCC-2998 colon
# Test Summary: NCI tumour cell line growth inhibition, 48 h
Documented TGI across a set of compounds
Recorded Endpoint: TGI

compound=C/C=C/C=C/C=C/C=C/C(=O)O recorded_result="> 100 µM"
compound=O=C1N=C2SC(=S)NC(=S)N2NC12c1ccccc1-c1ccccc12 recorded_result="> 10 µM"
compound=Cc1ccc2nc(-c3ccc(N(C)C)c(Br)c3)cn2c1 recorded_result="> 100 µM"
compound=NCCCCNCCCNC(=O)c1nc(-c2nc(CCN)sc2Cl)sc1Cl recorded_result="> 100 µM"
compound="COc1ccc(OC2OC(CO)C(OCc3ccccc3)C(OCc3ccccc3)C2OCc2ccccc2)cc1 (stereo not drawn)" recorded_result="> 100 µM"
compound="CC1C(=O)OCC2=CCN3CCC(OC(=O)C(C)C1(C)O)C23 (stereo not drawn)" recorded_result="> 100 µM"
compound="COc1ccc(/C=C2\\CCCC(C(NO)c3ccc(OC)cc3)C2=NO)cc1 (stereo not drawn)" recorded_result="> 100 µM"
compound="CN1C(=O)N(C)C2C1NN=c1s/c(=C\\c3ccc(F)cc3)c(=O)n12 (stereo not drawn)" recorded_result="> 100 µM"
compound="O=C(N/N=C(/CCN1CCCC1)CC(c1ccccc1)c1c(O)c2ccccc2oc1=O)c1ccncc1 (stereo not drawn)" recorded_result="> 100 µM"
compound=COC(=O)Cc1ccc2c(cnn2-c2ccccc2)c1OC recorded_result="> 10 µM"
compound="CC(CCC(=O)O)C(=O)O (stereo not drawn)" recorded_result="> 100 µM"
compound=Cc1cc(S(=O)(=O)/N=C(/C(=C=[N-])C#N)[n+]2ccc(N(C)C)cc2)c(SCC(=O)O)cc1Cl recorded_result="> 100 µM"
compound="CCOC(=O)C1(C#N)C(c2ccccc2)CC(O)(c2ccc(Cl)cc2)C(C(=O)c2ccc(Cl)cc2)C1c1ccccc1 (stereo not drawn)" recorded_result="> 100 µM"

Origin of measurements: PubChem BioAssay (NCI)
